- Measurement Protocol: Quantitative High-Throughput drug screen in 47 multiple myeloma cell lines against the NCATS MIPE library collection: KMS12PE_JCRB cell viability assay (AID 1918972); also: nearly all actives have a fitted effect of over 30% in size;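 as to viability: 100% = DMSO only wells and 0% = wells with media alone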
- Experimental Setup: KMS12PE myeloma viability, CellTiter-Glo ATP, 48 h; series mostly up to 45.8 µM
Inconclusive results are not listed. The source made the active and inactive calls. Calls follow the shape of the dose curve; as a rule, active = well fitted cell-killing curve with a large enough effect; inconclusive = small, poorly fitted or top-dose-only effect, or effect the other way; inactive = no such curve, though single readings can be large or run the other way.
Pick one: label 1 for active, label 0 for inactive

Known results for compounds:
- Compound: "CCCCC[C@H](O)C=C[C@H]1[C@H](O)CC(=O)[C@H]1CC=CCCCC(=O)O"
  Group: "label 0"
- Compound: "O=C1CN2Cc3c(ccc(Cl)c3Cl)N=C2N1"
  Group: "label 0"
- Compound: "Cn1cc(-c2ccc3nnc(Sc4ccc5ncccc5c4)n3n2)cn1"
  Group: "label 1"
- Compound: "C[C@@H]1CC=CC=CC=CC=C[C@@H](O[C@@H]2O[C@H](C)[C@@H](O)[C@H](N)[C@H]2O)C[C@@H]2O[C@](O)(C[C@@H](O)C[C@@H]3O[C@@H]3C=CC(=O)O1)C[C@H](O)[C@@H]2C(=O)O"
  Group: "label 0"
- Compound: "N#CC(c1ccnc(NCCc2cccnc2)n1)c1nc2ccccc2s1 (stereo unspecified)"
  Group: "label 1"

Name the outcome recorded for "NS(=O)(=O)c1cc(Cl)c(Cl)c(S(N)(=O)=O)c1" in the assay.
label 0

Identify the outcome logged in this assay for the compound shown: CCCCC(C=O)NC(=O)C(CC(C)C)NC(=O)OCc1ccccc1 (stereo unspecified)
label 0

* * *

- Measurement Protocol: Quantitative High-Throughput drug screen in 47 multiple myeloma cell lines against the NCATS MIPE library collection: KMS27_JCRB cell viability assay (AID 1918970); also: nearly all actives have a fitted effect of over 30% in size
- Experimental Setup: KMS27 myeloma cells, CellTiter-Glo ATP viability, 48 h
Records with an inconclusive call do not appear. Active and inactive are the calls of the source. Calls come from the whole dose curve; as a rule, active = well fitted cell-killing curve with a large enough effect; inconclusive = small, poorly fitted or top-dose-only effect, or effect the other way; inactive = no such curve, though single readings can be large or run the other way.
A correct response names exactly one class from Yes = active, No = inactive

Solved entries:
- Compound: "CCn1c(-c2nonc2N)nc2cncc(CNC3CCNCC3)c21"
  Group: "Yes"
- Compound: "Cc1cc(CS(=O)(=O)c2ccccc2)cc(OCc2ccc(CN3CCC[C@H]3CO)cc2)c1"
  Group: "Yes"
- Compound: "CC(C)(CO)[C@@H](O)C(=O)NCCC(=O)O"
  Group: "No"

Please state the recorded outcome for this compound: "COC(=O)Nc1ccc(-c2nc(N3CCOCC3)c3cnn(C4CCN(C(=O)OC)CC4)c3n2)cc1"
Yes

Short answer needed: outcome of this test for "COc1cc(C=CC(=O)O)ccc1O" ?
No

* * *

- Measurement Protocol: qHTS of pediatric cancer cell lines to identify multiple opportunities for drug repurposing: Primary screen for LAN-5 cells (AID 1347100);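 also: plate controls were DMSO neutral control for no effect and bortezomib positive control for full effect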
- Experimental Setup: LAN-5 neuroblastoma viability, CellTiter-Glo luminescence, 48 h; series mostly up to 46 µM
Inconclusive results are not listed. Activity calls are given as the source filed them. Calls follow the shape of the dose curve; as a rule, active = well fitted cell-killing curve with a large enough effect; inconclusive = small, poorly fitted or top-dose-only effect; inactive = no such curve, though single readings can be large or run the other way.
Outcome (select one): active, inactive

Hi, do you know how "C[C@@H]1C[C@H]2[C@@H]3CCC4=CC(=O)C=C[C@]4(C)[C@@]3(F)[C@@H](O)C[C@]2(C)[C@@]1(O)C(=O)CO" came out in this test?
inactive

Identify the outcome logged in this assay for the compound shown: "CCNC(=O)[C@H]1O[C@@H](n2cnc3c(N)nc(NCCc4ccc(CCC(=O)O)cc4)nc32)[C@H](O)[C@H]1O"
inactive

For "CN[C@@H]1[C@@H](O)[C@@H](O[C@@H]2[C@@H](O)[C@H](O[C@H]3O[C@H](CN)[C@@H](O)[C@H](O)[C@@H]3O)[C@@H](N)C[C@@H]2NC(=O)[C@@H](O)CN)OC[C@]1(C)O" , which call appears in the assay record?
inactive

Lab log entry: "CC[C@H]1OC(=O)[C@H](C)[C@@H](O[C@H]2C[C@@](C)(OC)[C@@H](O)[C@H](C)O2)[C@H](C)[C@@H](O[C@@H]2O[C@H](C)C[C@H](N(C)C)[C@H]2O)[C@](C)(O)C[C@H](C)C(=NOCOCCOC)[C@H](C)[C@@H](O)[C@]1(C)O" — outcome as called in the assay?
inactive

Entry "C[C@@H]1CC=CC=CC=CC=C[C@@H](O[C@@H]2O[C@H](C)[C@@H](O)[C@H](N)[C@H]2O)C[C@@H]2O[C@](O)(C[C@@H](O)C[C@@H]3O[C@@H]3C=CC(=O)O1)C[C@H](O)[C@@H]2C(=O)O" : call = ?
inactive

How did this test come out for "CC(=O)OCC(=O)[C@@]1(O)CC[C@H]2[C@@H]3CCC4=CC(=O)C=C[C@]4(C)[C@@H]3[C@@H](O)C[C@@]21C" ?
inactive

* * *

- Measurement Protocol: qHTS Screen of the MIPE 4.0 Collection Against Ewings Sarcoma (RDES) (AID 1259252); also: nearly all actives have a fitted effect of over 35% in size; also: potency is read from the fitted curve at half-maximal effect
- Experimental Setup: RD-ES Ewing sarcoma viability, CellTiter-Glo, 48 h; series mostly up to 45.8 µM
Records with an inconclusive call do not appear. Active and inactive are the calls of the source. Calls follow the shape of the dose curve; as a rule, active = well fitted inhibition curve with a large enough effect; inconclusive = small, poorly fitted or top-dose-only effect; inactive = no such curve, though single readings can be large or run the other way.
Endpoint Label: Potency

Take a look at these entries with their results.
- Compound: "CCCCC(C)(C)[C@H](O)C=C[C@H]1[C@H](O)CC(=O)[C@H]1CC=CCCCC(=O)O"
  Potency: "inactive"
- Compound: "O=C(O)c1ccc(O)c2ncc(N3CCOCC3)cc12"
  Potency: "26.4 µM (active)"
- Compound: "CC(NCCc1ccc(O)cc1)C(O)c1ccc(O)cc1 (configuration not stated)"
  Potency: "inactive"
- Compound: "COc1ccc2cc1Oc1ccc(cc1)C[C@H]1c3cc(c(OC)cc3CCN1C)Oc1c(OC)c(OC)cc3c1[C@H](C2)N(C)CC3"
  Potency: "20.9 µM (active)"
- Compound: "Cc1cccc(-c2[nH]c(C(C)(C)C)nc2-c2ccc3c(c2)OCO3)n1"
  Potency: "8.33 µM (active)"

Please report the measured Potency for "CCOC(=O)N1c2ccc(C(F)(F)F)cc2[C@@H](N(Cc2cc(C(F)(F)F)cc(C(F)(F)F)c2)C(=O)OC)C[C@H]1CC"
23.5 µM (active)

Answer with the recorded Potency for the compound listed here: "CC(C)CN(C[C@H](O)[C@H](Cc1ccccc1)NC(=O)O[C@H]1CCOC1)S(=O)(=O)c1ccc(N)cc1"
16.6 µM (active)

Input "CN[C@@H]1CN(c2ccc3c(=O)c(C(=O)O)cn(-c4nccs4)c3n2)C[C@@H]1OC" , output reported Potency.
1.29 µM (active)

Tell me measured Potency for "NC[C@H]1O[C@H](O[C@@H]2[C@@H](O)[C@@H](O[C@H]3O[C@H](CO)[C@@H](O)[C@H](N)[C@@H]3O)[C@H](N)C[C@@H]2N)[C@H](O)[C@@H](O)[C@H]1O" please.
inactive

For "CN(C)CCOc1ccc(C(=C(CCCl)c2ccccc2)c2ccccc2)cc1" , write its Potency.
1.66 µM (active)

Tell me measured Potency for "COc1cc(Cl)cn2c(-c3cccc(NC4CNC4)n3)cnc12" please.
26.4 µM (active)

Tell me Potency reported for "COc1ccc(-c2cc3nccn3c(Nc3ncccc3C(N)=O)n2)cc1OC"
14.8 µM (active)

* * *

- Measurement Protocol: Quantitative High-Throughput drug screen in 47 multiple myeloma cell lines against the NCATS MIPE library collection: KMS27_JCRB cell viability assay (AID 1918970); also: nearly all actives have a fitted effect of over 30% in size
- Experimental Setup: KMS27 myeloma cells, CellTiter-Glo ATP viability, 48 h
Inconclusive results are not listed. Calls of active or inactive are those of the source. Calls follow the shape of the dose curve; as a rule, active = well fitted cell-killing curve with a large enough effect; inconclusive = small, poorly fitted or top-dose-only effect, or effect the other way; inactive = no such curve, though single readings can be large or run the other way.
Respond with a class label; see active, inactive

I would be grateful if you could indicate the recorded call for "O=c1cc(-c2ccc(O)c(O)c2)oc2cc(O)cc(O)c12" .
active

What call does the record list for "Cn1c(=O)c(Oc2ccc(F)cc2F)cc2cnc(NC3CCOCC3)nc21" ?
inactive

Which outcome did this test record for the molecule "CC(C)(F)C[C@H](N[C@@H](c1ccc(-c2ccc(S(C)(=O)=O)cc2)cc1)C(F)(F)F)C(=O)NC1(C#N)CC1" ?
inactive

What call does the record list for "Cc1ccc(NC(=O)c2ccc(CN3CCN(C)CC3)cc2)cc1Nc1nc(-c2cccnc2)cs1" ?
active

* * *

- Measurement Protocol: qHTS of pediatric cancer cell lines to identify multiple opportunities for drug repurposing: Primary screen for BT-12 cells (AID 1347101); also: nearly all actives have a fitted effect of over 25% in size
- Experimental Setup: BT-12 viability, CellTiter-Glo luminescence, 48 h; series mostly up to 57.3 µM
Records with an inconclusive call do not appear. Active and inactive are the calls of the source. Calls come from the whole dose curve; as a rule, active = well fitted cell-killing curve with a large enough effect; inconclusive = small, poorly fitted or top-dose-only effect; inactive = flat fitted curve, though single readings scatter.
I would appreciate it if you answered using one of these outcomes: TRUE for active, FALSE for inactive

These recorded examples may help you get a feel for the data.
- Compound: "CC1(C)[C@H]2CC[C@]3(C)[C@@H](C(=O)C=C4[C@@H]5C[C@@](C)(C(=O)O)CC[C@]5(C)CC[C@]43C)[C@@]2(C)CC[C@@H]1O"
  Group: "FALSE"
- Compound: "CN(C)c1ccc(-c2nc3ncc(Cl)c(N4CCN(CC(=O)Nc5nccs5)CC4)c3[nH]2)cc1"
  Group: "FALSE"
- Compound: "CSc1cccc(Nc2ncc3cc(-c4c(Cl)cccc4Cl)c(=O)n(C)c3n2)c1"
  Group: "FALSE"
- Compound: "Nc1ncnc2c1ncn2[C@@H]1O[C@H](CO)[C@@H](O)[C@@H]1O"
  Group: "TRUE"
- Compound: "CC=C1C2C=C(C)CC1(N)c1ccc(=O)[nH]c1C2 (configuration not stated)"
  Group: "FALSE"

Write down the call the test reported for this compound. Item: "CC[C@]1(O)C[C@H]2CN(CCC3=c4ccccc4=N[C]3[C@@](C(=O)OC)(c3cc4c(cc3OC)N(C)[C@H]3[C@@](O)(C(N)=O)[C@H](O)[C@]5(CC)C=CCN6CC[C@]43[C@@H]65)C2)C1"
TRUE

Give the logged outcome of this assay for the following compound: NCC1CCC(C(=O)O)CC1 (configuration not stated)
FALSE

Origin of the recorded values: PubChem BioAssay (NCATS)
